subject of test: L-lactate dehydrogenase (Plasmodium falciparum (isolate CDC / Honduras)) (UniProt Q27743)
Sequence (Q27743 whole entry, looked up): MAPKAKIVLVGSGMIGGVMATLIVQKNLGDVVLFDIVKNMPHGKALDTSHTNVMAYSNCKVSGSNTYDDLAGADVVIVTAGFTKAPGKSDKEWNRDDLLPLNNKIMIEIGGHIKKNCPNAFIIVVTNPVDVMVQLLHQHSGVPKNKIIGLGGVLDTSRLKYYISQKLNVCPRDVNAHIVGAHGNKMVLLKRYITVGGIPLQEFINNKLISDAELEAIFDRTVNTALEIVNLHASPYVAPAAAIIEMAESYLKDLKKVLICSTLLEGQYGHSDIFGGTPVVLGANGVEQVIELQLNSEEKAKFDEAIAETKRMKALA
assay method text: PfLDH activity inhibition – cell lysate, 3D7 strain, counter-screen for P. falciparum growth inhibition project (AID 2304);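 also: 0% = vehicle and 100% = reference inhibitor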
condition info: P. falciparum 3D7 crude extract, LDH APAD/NBT absorbance; at 2 µM; stronger effect = higher value
value kind: inhibition (%)
Return type: number; implicit unit %.

compound | subject of test | unit of measure | inhibition
C=Cc1cc(OC)c2c(c1)c(=O)oc1c2cc(OC)c2c(O)ccc([C@H]3O[C@H]([C@@H](C)O)[C@H](O)[C@H]3O)c21 | L-lactate dehydrogenase (Plasmodium falciparum (isolate CDC / Honduras)) (UniProt Q27743) | % | 0
O=C(/C=C/c1ccc(Cl)c(Cl)c1)N1CCC(CN2CCC(c3c[nH]c4cc5c(cc34)OCO5)CC2)CC1 | L-lactate dehydrogenase (Plasmodium falciparum (isolate CDC / Honduras)) (UniProt Q27743) | % | -2
CC(Cc1ccc([N+](=O)[O-])cc1)NCC(O)c1cccc(C(F)(F)F)c1 (stereo not given) | L-lactate dehydrogenase (Plasmodium falciparum (isolate CDC / Honduras)) (UniProt Q27743) | % | -2
N=c1c2c(n(Cc3ccc(Cl)cc3Cl)c3c1CCC3)CCCC2 | L-lactate dehydrogenase (Plasmodium falciparum (isolate CDC / Honduras)) (UniProt Q27743) | % | 3

Next up:
Let me know recorded inhibition for CN(c1ccc(NC(=O)CCOc2ccccc2)cc1)C1CCN(Cc2cccc(O)c2)CC1 , thanks.
3

----------
assay method text: ICB984 medulloblastoma cell growth inhibition, synergistic combos for chromothripsis tumors, cisplatin or BGB combos (AID 1671451);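 also: cells exposed for 96 hours before readout; 0% = vehicle DMSO and 100% = killing by high DMSO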
condition info: ICB984 medulloblastoma cells, drug combinations, at 0.5 µM, stronger effect = higher value
value kind: inhibition (%)
Return type: number; implicit unit %.

Example entries and their recorded answers appear below.
compound | unit of measure | inhibition
O=C1CCC[C@@H]2[C@H]3CCCN4CCC[C@@H](CN12)[C@@H]34 | % | -0.41
COc1cc(C2c3cc4c(cc3C(O)C3COC(=O)C23)OCO4)cc(OC)c1OC (stereo not drawn) | % | -21.6

Next up:
Let me know recorded inhibition for CN(C)NC(=O)CCC(=O)O , thanks.
-22.7

----------
assay method text: HepG2 cytotoxicity, primary screen, cytotoxicity control for P. falciparum antimalarial project, cell-based, ATP luminescence (AID 2303);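 also: 0% = DMSO wells and 100% = digitonin-killed cells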
condition info: HepG2 viability, 24-48 h, at 10 µM
Activity calls are given as the source filed them.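 How the source made its calls: active means inhibition above 50%; inactive means the rest.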
Pick one: active, inactive

Example entries begin here.
compound | group label
O=C(/C=C/c1ccc(Cl)c(Cl)c1)N1CCC(CN2CCC(c3cn(CC(=O)N4CCCCC4)c4ccccc34)CC2)CC1 | active
COC(=O)c1ccc(CC(C)NCC(O)c2cccc(C(F)(F)F)c2)c(OC)c1 (stereo not drawn) | inactive

Let's switch to this compound now.
Could you check what this test reported for Oc1ccc(CN2CCN(CCOC(c3ccccc3)c3ccc(Cl)cc3)CC2)cc1Cl (stereo not drawn) ?
inactive

----------
assay method text: differential killing of epithelial or mesenchymal cells, primary screen, imaging, PC-3E GFP, TEM4-18 mCherry, co-culture (AID 1345086);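 also: cells exposed to compound for 72 h before imaging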
condition info: imaging cell counts, measured here: mesenchymal TEM4-18 mCherry cell survival, at 1 µM
Catalogue of compounds with associated normalised cell number
Write no unit; give the number alone.

Example entries and their recorded answers appear below.
compound | value kind | recorded result
O=C(CCCN1CCC2(CC1)C(=O)NCN2c1ccccc1)c1ccc(F)cc1 | normalised cell number | 1.1
N#Cc1nn(-c2c(Cl)cc(C(F)(F)F)cc2Cl)c(N)c1S(=O)C(F)(F)F (configuration not stated) | normalised cell number | 0.9
Oc1cccc2cccnc12 | normalised cell number | 0.93
Fc1ccc(N2CCNCC2)c(F)c1 | normalised cell number | 1.04
CC[C@H]1C2CC3[C@@H]4N(C)c5ccccc5[C@]45C[C@@H](C2C5O)N3[C@@H]1O (some centres not stated) | normalised cell number | 1.01
CN1C(=O)CCS(=O)(=O)C1c1ccc(Cl)cc1 (configuration not stated) | normalised cell number | 1.07

Let me know recorded normalised cell number for O=C(O)CF , thanks.
1

Let me know recorded normalised cell number for C[C@]12CCC(=O)C=C1CCC1C2CC[C@@]2(C)C1CC[C@@H]2O (some centres not stated) , thanks.
0.85

Let me know recorded normalised cell number for C[C@H](N)[C@H](O)c1ccccc1 , thanks.
1.08

Let me know recorded normalised cell number for COc1cc2c(cc1O)CCNC2C (configuration not stated) , thanks.
0.92

Let me know recorded normalised cell number for NC(=O)c1ccc(N)nc1 , thanks.
1.14

Let me know recorded normalised cell number for NP(N)(=O)NC(=O)c1ccc(F)cc1 , thanks.
0.91

Let me know recorded normalised cell number for O=C1C=C2C=C[C@@H]3C[C@@]2(O1)[C@H]1CCCCN31 , thanks.
1.09
